Target: T1, Cynomolgus PD-1 extracellular domain, hFc tag (cynomolgus, UniProt B0LAJ3 25-170)
T1 construct: Bought; also called cynoPro1.ECD.hFc; cyno PD-1 ECD protein
T1 sequence (B0LAJ3 entry or part of it limits assumed): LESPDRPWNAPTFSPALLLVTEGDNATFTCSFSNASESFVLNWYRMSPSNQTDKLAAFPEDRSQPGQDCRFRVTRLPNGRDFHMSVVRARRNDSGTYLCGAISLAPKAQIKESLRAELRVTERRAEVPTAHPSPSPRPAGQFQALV
Assay: SPR Biacore 8K; PD-1-hFc captured on anti-human Fc chip, VHH injected; 1:1 fit
measurement.name: koff (s⁻¹)
Give bare numbers, in s⁻¹.

Find the recorded koff belonging to AP17R1-2H2-Z1-R1-4B2 (VHH, not shown: his- and c-Myc-tag from vector pETbac) VHH: QVQLVESGGGVVQPGGSLRLSCAASDSISSLVNMGWYRQAPGKQRELVALIANYITHYADFVKGRFTISRDNSKNTLYLQMNSLRAEDTAVYYCYARNIIVDYWGQGTLVTVSS and report it. 0.00879

Find the recorded koff belonging to AP17R1-2H2-Z1-R1-6E1 (VHH, not shown: his- and c-Myc-tag from vector pETbac) VHH: QVQLVESGGGVVQPGGSLRLSCAASDSIDSMVNMGWYRQAPGKQRELVALIANYITHYADFVKGRFTISRDNSKNTLYLQMNSLRAEDTAVYYCYARNIIVDYWGQGTLVTVSS and report it. 0.00754

Find the recorded koff belonging to AP17R1-2H2-Z1-R1-29B6 (VHH, not shown: his- and c-Myc-tag from vector pETbac) VHH: QVQLVESGGGVVQPGGSLRLSCAASDSIDSLVNMGWYRQAPGKQRELVALIANYITHYADFVKGRFTISRDNSKNTLYLQMNSLRAEDTAVYYCYARNIYVDYWGQGTLVTVSS and report it. 0.00646

Further cases:
Find the recorded koff belonging to AP17R1-2H2-Z1-R1-14A1 (VHH, not shown: his- and c-Myc-tag from vector pETbac) VHH: QVQLVESGGGVVQPGGSLRLSCAASDSIDSLVNMGWYRQAPGKQRELVALIATYITHYADFVKGRFTISRDNSKNTLYLQMNSLRAEDTAVYYCYARNIIVDYWGQGTLVTVSS and report it. 0.00213
